Provenance of the data: patent US7932281B2

# measurement target: CXCR4 (Homo sapiens, UniProt P61073)
# Construct: endogenous in cells; host or cells: MT-4 cells
# Sequence (P61073 whole entry): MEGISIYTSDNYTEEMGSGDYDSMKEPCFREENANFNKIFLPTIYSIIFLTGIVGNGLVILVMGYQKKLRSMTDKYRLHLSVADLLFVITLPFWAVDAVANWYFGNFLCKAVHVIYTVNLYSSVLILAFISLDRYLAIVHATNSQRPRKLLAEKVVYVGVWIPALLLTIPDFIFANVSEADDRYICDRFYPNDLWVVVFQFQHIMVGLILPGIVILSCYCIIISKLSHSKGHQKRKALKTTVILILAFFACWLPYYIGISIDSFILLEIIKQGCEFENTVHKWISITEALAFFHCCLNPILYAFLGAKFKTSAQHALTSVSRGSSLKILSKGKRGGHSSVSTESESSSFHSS
# protocol description: Inhibition of 125I-SDF-1α binding to receptors CXCR4 on MT-4 cells (Test Example 2)
# conditions: binding-inhibition % at 0.01 μM, 2 hours under ice-cooling, read-out: Inhibition rate (%)
Parameter inhibition at 0.01 µM: see the listing below.
parameter measured: inhibition at 0.01 µM (%)

1) CCCN(CCC)CCCCN1CCc2cc(CN(Cc3ncc[nH]3)Cc3nccn3C)ccc2C1 :: 93.5
2) CCCN(CCC)CCCCN(CC(=O)O)Cc1ccc(CN(Cc2ncc[nH]2)Cc2nccn2C)cc1 :: 88.3
3) CCCN(CCC)Cc1ccc(-c2nc3ccc(CN(Cc4ncc[nH]4)Cc4nccn4C)cc3n2C)cc1 :: 71.2
4) CCCN(CCC)CCCCN(Cc1ccc(CN(Cc2ncc[nH]2)Cc2nccn2C)cc1)S(=O)(=O)c1ccc(C)cc1 :: 84.3
5) CCCN(CCC)CCCCNC(=S)Nc1ccc(CN(Cc2ncc[nH]2)Cc2nccn2C)cc1 :: 86.3
6) CCCN(CCC)CCCCN(Cc1ccc(CN(Cc2ncc[nH]2)Cc2nccn2C)cc1)Cc1nnn[nH]1 :: 71.4
7) CCCN(CCC)CCCCc1nc2ccc(CN(Cc3ncc[nH]3)Cc3ncc[nH]3)cc2n1CCC :: 71.4
8) CCCN(CCC)CCCCN(CC#N)Cc1ccc(CN(Cc2ncc[nH]2)Cc2nccn2C)cc1 :: 82.3
9) CCCN(CCC)Cc1ccc(NC(=O)c2ccc(CN(Cc3ccc(CC)cn3)Cc3nccn3C)cc2)cc1 :: 46.9
10) CCCN(CCC)CCCCN(CCO)Cc1ccc(CN(Cc2ncc[nH]2)Cc2nccn2C)cc1 :: 87.9
11) CCCN(CCC)CCCCN(C)C(=O)Nc1ccc(CN(Cc2ncc[nH]2)Cc2nccn2C)cc1 :: 57.3
12) CCCN(CCC)CCCCN(Cc1ccc(CN(Cc2ncc[nH]2)Cc2nccn2C)cc1)C(=O)C(F)(F)F :: 92.3
13) CCCN(CCC)CCCCc1nc2ccc(CN(Cc3ncc[nH]3)Cc3nccn3C)cc2n1C(C)C :: 86.2
14) CCCN(CCC)CCCCN(C)Cc1ccc(CNCc2nccn2Cc2nccn2C)cc1 :: 20.4
15) CCCN(CCC)CCCCN(CCC(=O)O)Cc1ccc(CN(Cc2ncc[nH]2)Cc2nccn2C)cc1 :: 85.8
